Escherchia coli NIHJ JC-2 data, read-out MIC
Counter-ions that a name gives are not always drawn.
Provide only the numeric value, understood in µg/mL.

Here are 2 molecules together with their reported answers.
CO/N=C(\C(=O)N[C@@H]1C(=O)N(OCC(=O)O)[C@H]1C)c1csc(N)n1 [Example 2, monosodium salt]    0.39
C[C@H]1[C@H](NC(=O)/C(=N\OC(C)(C)C(=O)O)c2csc(N)n2)C(=O)N1OCC(=O)O [Example 3, disodium salt]    0.39

For Escherchia coli NIHJ JC-2, provide MIC of CC(C)(O/N=C(\C(=O)N[C@@H]1C(=O)N(OCC(=O)O)[C@H]1COC(N)=O)c1csc(N)n1)C(=O)O (relative stereo) [Example 18, disodium salt] please.
0.78

====

# Test system: Proteus vulgaris IFO 3988
Where a name gives a salt, the structure may show the parent alone.
Catalogue of compounds with associated MIC
The figure you give is taken to be in µg/mL; do not add the unit.

Some entries whose results are on file:
CC(C)(O/N=C(\C(=O)N[C@H]1CN(OCC(=O)O)C1=O)c1csc(N)n1)C(=O)O [Example 5, disodium salt]    0.78
NC(=O)OC[C@H]1[C@H](NC(=O)/C(=N\OCC(=O)O)c2csc(N)n2)C(=O)N1OCC(=O)O (relative stereo) [Example 17, disodium salt]    0.39
CO/N=C(\C(=O)N[C@@H]1C(=O)N(OCC(=O)O)[C@H]1C)c1csc(N)n1 [Example 2, monosodium salt]    0.39

For the record C[C@H]1[C@H](NC(=O)/C(=N\OCC(=O)O)c2csc(N)n2)C(=O)N1OCC(=O)O [Example 19, disodium salt] , what value of MIC is listed for Proteus vulgaris IFO 3988?
0.39

Lab note: need MIC for CCN1CCN(C(=O)N[C@@H](C(=O)N[C@@H]2C(=O)N(OCC(=O)O)[C@H]2C)c2ccccc2)C(=O)C1=O [Example 4, monosodium salt] on Proteus vulgaris IFO 3988, anyone have it?
1.56
